# credit: patent US12491185B2

// reported mPTP Rat liver pIC50 for each item listed
- Test system: mPTP
- TEST PROTOCOL: mPTP activity (Ca2+ retention) assay in isolated rat liver mitochondria
- Assay type: biochemical
- EXPERIMENTAL SETUP: examples tested by different contract research organisations, believed comparable
- Protocol: Pharmacological inhibition or modulation of the mPTP can be measured in well characterised ‘Ca^2+ retention’ assays performed in isolated mitochondria. […] The distribution of Ca^2+ between extra- and intra-mitochondrial compartments can be measured in real time with the use of membrane-impermeant Ca^2+ sensitive fluorescent dyes. […] MPTP activity was measured in mitochondria freshly isolated from female Sprague Dawley (250 to 300 gram) rat livers using the following method. […]
Form field (numeric): enter value without unit.

Worked examples follow.
> print(dat)
                                   molecule  target.of.assay  value
1  O=C(NC[C@H](Cc1c(F)cc(F)cc1F)C1CC1)c1nccc(=O)[nH]1             mPTP    5.4
2  Cn1nc(C(=O)NCC(C)(Cc2ccc(F)cc2F)C2CC2)[nH]c1=O (single isomer, unassigned) [Example 239]             mPTP   7.10
3     O=C(NCC1(Cc2cccc(F)c2)CCC1)c1nnc[nH]1             mPTP   4.87
4  CC(CNC(=O)c1noc(=O)[nH]1)(Cc1ccc(F)cc1F)C1CC1 (single isomer, unassigned) [Example 273]             mPTP   6.50

Okay, next one:
q: Specify reported mPTP Rat liver pIC50 for the molecule shown: CCC(CNC(=O)c1nn(C)c(=O)[nH]1)Cc1cccs1 (stereo not drawn)
a: 5.77

###

- Tested on: mPTP
- TEST PROTOCOL: mPTP activity (Ca2+ retention) assay in isolated rat liver mitochondria
- Format: biochemical
- EXPERIMENTAL SETUP: examples tested by different contract research organisations, believed comparable
- Experimental: Pharmacological inhibition or modulation of the mPTP can be measured in well characterised ‘Ca^2+ retention’ assays performed in isolated mitochondria. […] The distribution of Ca^2+ between extra- and intra-mitochondrial compartments can be measured in real time with the use of membrane-impermeant Ca^2+ sensitive fluorescent dyes. […] MPTP activity was measured in mitochondria freshly isolated from female Sprague Dawley (250 to 300 gram) rat livers using the following method. […]
PROPERTY NAME: mPTP Rat liver pIC50
Form field (numeric): enter value without unit.

q: Specify reported mPTP Rat liver pIC50 for the compound shown: Cn1nc(C(=O)NC[C@H](Cc2cc(F)ccc2F)C2CC2)[nH]c1=O [Example 159]
a: 6.97

q: Specify reported mPTP Rat liver pIC50 for the compound shown: O=C(NCC1(Cc2cccc(F)c2)CCC1)c1ccc(=O)[nH]n1 [Example 177]
a: 5.85

q: Specify reported mPTP Rat liver pIC50 for the compound shown: Cn1nc(C(=O)NCC(C)(CO)Cc2ccccc2)[nH]c1=O (centres unmarked) [Example 41]
a: 5.25

q: Specify reported mPTP Rat liver pIC50 for the compound shown: CCC(F)(CNC(=O)c1nccc(=O)[nH]1)Cc1ccc(F)cc1F (single isomer, unassigned) [Example 256]
a: 5.09

q: Specify reported mPTP Rat liver pIC50 for the compound shown: COC(CNC(=O)c1nn(C)c(=O)[nH]1)Cc1ccccc1 (centres unmarked) [Example 43]
a: 5.03

###

- Tested on: mPTP
- TEST PROTOCOL: mPTP activity (Ca2+ retention) assay in isolated rat liver mitochondria
- Type: biochemical
- EXPERIMENTAL SETUP: examples tested by different contract research organisations, believed comparable
// reported mPTP Rat liver pIC50 for each item listed

> print(dat)
                                   compound         property.name  value
1  O=C(NCC1(Cc2cc(F)cc(F)c2)CCC1)c1cncc(=O)[nH]1  mPTP Rat liver pIC50  <4.57

q: State mPTP Rat liver pIC50 (mPTP) of `Cn1nc(C(=O)NCC2(Cc3cccc(C(F)(F)F)c3)CCC2)[nH]c1=O` .
a: <4.57

q: State mPTP Rat liver pIC50 (mPTP) of `Cn1c(=O)[nH]cc(C(=O)NCC(C)(C)Cc2ccccc2)c1=O` .
a: <4.52

q: State mPTP Rat liver pIC50 (mPTP) of CCC(Cc1ccc(F)cc1F)CN(C)C(=O)c1nn(C)c(=O)[nH]1 (centres unmarked) .
a: <4.57

q: State mPTP Rat liver pIC50 (mPTP) of Cn1nc(C(=O)NC(CCc2ccccc2)CC(F)(F)F)[nH]c1=O (centres unmarked) .
a: <4.52

###

// reported mPTP Rat liver pIC50 for each item listed
- System: mPTP
- TEST PROTOCOL: mPTP activity (Ca2+ retention) assay in isolated rat liver mitochondria
- Format: biochemical
- EXPERIMENTAL SETUP: examples tested by different contract research organisations, believed comparable
- Experimental: Pharmacological inhibition or modulation of the mPTP can be measured in well characterised ‘Ca^2+ retention’ assays performed in isolated mitochondria. […] The distribution of Ca^2+ between extra- and intra-mitochondrial compartments can be measured in real time with the use of membrane-impermeant Ca^2+ sensitive fluorescent dyes. […] MPTP activity was measured in mitochondria freshly isolated from female Sprague Dawley (250 to 300 gram) rat livers using the following method. […]

Worked examples follow.
> print(dat)
                                   molecule         property.name  value
1  O=C1COCC(C(=O)NCC2(Cc3ccccc3)CCC2)N1 (centres unmarked)  mPTP Rat liver pIC50  <4.52
2  O=C(NCC1(Cc2ccc(F)cc2F)CCC1)c1ccn[nH]c1=O  mPTP Rat liver pIC50  <4.57
3  Cn1nc(C(=O)NCC2(Cc3ccc(F)cc3F)CCC2)n(C)c1=O  mPTP Rat liver pIC50  <4.57

q: State mPTP Rat liver pIC50 (mPTP) of O=C(NCC1(Cc2ccc(F)cc2F)CCC1)c1c[nH]c(=O)cn1 [Example 138] .
a: <4.57

q: State mPTP Rat liver pIC50 (mPTP) of CCC(CNC(=O)c1nn(C)c(=O)[nH]1)Cc1ccc2cnccc2c1 (centres unmarked) .
a: <4.57

###

// reported mPTP Rat liver pIC50 for each item listed
- Tested on: mPTP
- TEST PROTOCOL: mPTP activity (Ca2+ retention) assay in isolated rat liver mitochondria
- Type: biochemical
- EXPERIMENTAL SETUP: examples tested by different contract research organisations, believed comparable

Worked examples follow.
> print(dat)
                                   compound  target.of.assay         property.name  value
1  O=C(NCC1(Cc2ccc(F)cc2F)CCC1)c1cn[nH]c(=O)c1 [Example 127]             mPTP  mPTP Rat liver pIC50  <4.57
2  O=C(NCC1(Cc2cccc(F)c2)CCC1)c1cnn[nH]1 [Example 167]             mPTP  mPTP Rat liver pIC50  <4.57
3  Cn1nc(C(=O)NCC2(Cc3ccc(F)cc3F)CCC2)nc1CO [Example 208]             mPTP  mPTP Rat liver pIC50  <4.57

q: Specify reported mPTP Rat liver pIC50 for the compound shown: CC(NC(=O)c1nn(C)c(=O)[nH]1)C1(Cc2ccccc2)CCC1 (single isomer, unassigned) [Example 24B]
a: <4.52

q: Specify reported mPTP Rat liver pIC50 for the compound shown: O=C(NCC1(Cc2ccccc2)CCC1)c1nc2ccccc2c(=O)[nH]1 [Example 66]
a: <4.52

###

// reported mPTP Rat liver pIC50 for each item listed
- Test system: mPTP
- TEST PROTOCOL: mPTP activity (Ca2+ retention) assay in isolated rat liver mitochondria
- Format: biochemical
- EXPERIMENTAL SETUP: examples tested by different contract research organisations, believed comparable
Form field (numeric): enter value without unit.

Worked examples follow.
> print(dat)
                                   compound  value
1  O=C(NCC1(Cc2ccc(F)cc2F)CCC1)c1cnn[nH]1 [Example 170]   5.65
2  O=C(NCC1(Cc2ccc(F)c(F)c2)CCC1)c1noc(=O)[nH]1 [Example 202]   5.61
3  O=C(NCC1(Cc2cccc(F)c2F)CCC1)c1cncc(=O)[nH]1 [Example 17]   6.05

q: Specify reported mPTP Rat liver pIC50 for the compound shown: CC[C@H](CNC(=O)c1nn(C)c(=O)[nH]1)Cc1ccc(F)cc1F [Example 98]
a: 6.59

q: Specify reported mPTP Rat liver pIC50 for the compound shown: CC[C@@H](Cc1ccc(F)cc1F)C(C)NC(=O)c1nn(C)c(=O)[nH]1 (single isomer, unassigned) [Example 224]
a: 4.52

q: Specify reported mPTP Rat liver pIC50 for the compound shown: Cn1nc(C(=O)NCC2(Cc3ccccc3Cl)CCC2)[nH]c1=O [Example 30]
a: 6.20

q: Specify reported mPTP Rat liver pIC50 for the compound shown: CC(CNC(=O)c1cc(O)no1)(Cc1ccc(F)cc1F)C1CC1 (single isomer, unassigned) [Example 270]
a: 5.39

q: Specify reported mPTP Rat liver pIC50 for the compound shown: CCC(CNC(=O)c1nn(C)c(=O)[nH]1)Cc1ccccc1 (stereo not drawn) [Example 40]
a: 6.29

q: Specify reported mPTP Rat liver pIC50 for the compound shown: CC(CNC(=O)c1nccc(=O)[nH]1)(Cc1ccc(F)cc1F)C1CC1 (single isomer, unassigned) [Example 244]
a: 6.73

q: Specify reported mPTP Rat liver pIC50 for the compound shown: O=C(NCC1(Cc2ccccc2)CCC1)c1nccc(=O)[nH]1 [Example 7]
a: 5.97

q: Specify reported mPTP Rat liver pIC50 for the compound shown: Cn1nc(C(=O)NCC2(Cc3ccc(F)cc3F)CCOCC2)[nH]c1=O [Example 121]
a: 6.67

q: Specify reported mPTP Rat liver pIC50 for the compound shown: Cn1nc(C(=O)NC[C@H](Cc2ccc(F)cc2F)CC(F)(F)F)[nH]c1=O [Example 245]
a: 6.13

q: Specify reported mPTP Rat liver pIC50 for the compound shown: O=C(NCC1(Cc2ccc(F)cc2)CCC1)c1cncc(O)n1 [Example 50]
a: 4.66

q: Specify reported mPTP Rat liver pIC50 for the compound shown: COCc1nnc(C(=O)NCC2(Cc3ccc(F)cc3F)CCC2)[nH]1 [Example 206]
a: 5.24

q: Specify reported mPTP Rat liver pIC50 for the compound shown: O=C(NCC1(Cc2ccc(F)cc2F)CCC1)c1ccc(=O)[nH]n1 [Example 175]
a: 5.92

q: Specify reported mPTP Rat liver pIC50 for the compound shown: O=C(NCC1(Cc2ccc(F)cc2F)CCC1)c1nncc(=O)[nH]1 [Example 198]
a: 5.95

q: Specify reported mPTP Rat liver pIC50 for the compound shown: CC(c1ccc(F)cc1F)[C@@H](CNC(=O)c1nccc(=O)[nH]1)C1CC1 (stereo partly drawn) [Example 188]
a: 5.42

q: Specify reported mPTP Rat liver pIC50 for the compound shown: Cn1nc(C(=O)NCC(Cc2ccc(F)cc2Cl)C2CC2)[nH]c1=O (stereo not drawn) [Example 193]
a: 6.36

q: Specify reported mPTP Rat liver pIC50 for the compound shown: Cn1nc(C(=O)NCC(C)(Cc2c(F)cc(F)cc2F)C2CC2)[nH]c1=O (single isomer, unassigned) [Example 227]
a: 6.21

q: Specify reported mPTP Rat liver pIC50 for the compound shown: O=C(NCC1(Cc2ccccc2)CCC1)c1noc(=O)[nH]1 [Example 88]
a: 5.28
